Tested on: P12-Ichikawa
Test summary: AUC of viability dose-response curve (% viability x log10 dose units); higher = less sensitive
Run parameters: HPLM + 10% dialyzed FBS; 48 h
Catalogue of AUC of viability dose-response curve readings, one per entry.
Lab note: jot the number down without any unit.

INSERT INTO assay_data (substance_smiles, measured_property, value_observed) VALUES
  ('NC(=O)c1cccc2nc(-c3ccc([C@H]4CCCN4)cc3F)[nH]c12', 'AUC of viability dose-response curve', 463),
  ('O=C(O)/C=C/c1ccc(O)c(O)c1', 'AUC of viability dose-response curve', 449),
  ('O=C(Cc1ccc(-c2ccc(OCCN3CCOCC3)cc2)cn1)NCc1ccccc1', 'AUC of viability dose-response curve', 200);

Query `CN[C@@H](C)C(=O)N[C@H]1CN(C(=O)CC(C)C)CC[C@H]2CC[C@@H](C(=O)NC(c3ccccc3)c3ccccc3)N2C1=O` yields AUC of viability dose-response curve of 411

Query `Cc1cc(C(=O)N2CCN(c3cccc(Cl)c3)CC2)n(-c2ccccc2)n1` yields AUC of viability dose-response curve of 349

###

Test system: SEM cells
Test summary: cell viability relative to DMSO control; higher = less cytotoxic
Run parameters: RPMI 5 mM glucose + 10% FBS; 48 h; 0.00702 µM
Catalogue of cell viability readings, one per entry.
Express the result in % but write the number alone.

Answered cases to consult:
INSERT INTO results (compound, value_observed) VALUES
  ('C[C@@H](NC(=O)c1ncnc(N)c1Cl)c1ncc(C(=O)Nc2cc(C(F)(F)F)c(Cl)cn2)s1', 105),
  ('C[S+](=O)([O-])c1ccc(-c2cnc(N)c(C(=O)Nc3ccccc3)n2)cc1', 90.7),
  ('c1ccc(CNc2nc(N3CCOc4ccccc43)nc3c2CCCC3)cc1', 87),
  ('CN(C)CC[C@H](c1ccc(Cl)cc1)c1ccccn1', 91),
  ('C=CCc1cccc(/C=N/NC(=O)CN2CCN(Cc3ccccc3)CC2)c1O', 124);

Query `O=C\1N(N\C=C1[N]2C=CN=N2)C3=NC=NC(=C3)N4CCOCC4` yields cell viability of 108

Query `CN(C)CCN(C)C(=O)c1ccc(NC(=O)Nc2ccc(-c3nc(N4CCOCC4)c4ccn(CC(F)(F)F)c4n3)cc2)cc1` yields cell viability of 96.2

Query `Cc1[nH]c(/C=C2\C(=O)Nc3ccccc32)c(C)c1CCC(=O)O` yields cell viability of 108

Query COc1ccc2[nH]c([S+]([O-])Cc3ncc(C)c(OC)c3C)nc2c1 (stereo not drawn) yields cell viability of 83.9

Query `CCC(=C/[C@H](C)C/C=C/C(C)=C/[C@@H](C)C(=O)[C@@H](C)[C@H](O)[C@@H](C)C/C(C)=C/C(=O)O)/C=C/[C@@H]1OC(=O)C=C[C@@H]1C` yields cell viability of 93.2

Query `CC1(C)CNc2cc(NC(=O)c3cccnc3NCc3ccncc3)ccc21` yields cell viability of 87.7

Query `CC[C@@]1(O)C(=O)OC\C2=C1\C=C\3N(CC4=C3N=C5C=CC=CC5=C4)C2=O` yields cell viability of 87.2

###

Test system: SEM cells
Test summary: cell viability relative to DMSO control; higher = less cytotoxic
Run parameters: HPLM + 10% dialyzed FBS; 48 h; 0.0211 µM
Measured property: cell viability

Answered cases to consult:
INSERT INTO results (compound, measured_property, value_observed) VALUES
  ('CC[C@H](NC(=O)[C@H](C)NC)C(=O)N1C[C@@H](O)C[C@H]1Cc1c(-c2[nH]c3cc(F)ccc3c2C[C@@H]2C[C@H](O)CN2C(=O)[C@H](CC)NC(=O)[C@H](C)NC)[nH]c2cc(F)ccc12', 'cell viability', '116%'),
  ('Nc1nnc(-c2cccc(Cl)c2Cl)c(N)n1', 'cell viability', '21.9%'),
  ('O=C(Nc1ncc(SCCN2CCCC2)s1)[C@]1(c2ccc([S+](=O)([O-])C3CC3)cc2)C[C@H]1C1CCCCC1', 'cell viability', '124%');

Query `COc1ccc([C@@H]2CC(=O)c3c(O)cc(O[C@@H]4O[C@H](CO[C@@H]5O[C@@H](C)[C@H](O)[C@@H](O)[C@H]5O)[C@@H](O)[C@H](O)[C@H]4O)cc3O2)cc1O` yields cell viability of 93.2%

Query CC(O)(C#Cc1ccc2c(c1)N(c1nc(N)ncc1Cl)CC2)c1nccs1 (stereo unspecified) yields cell viability of 100%

Query `CC1(N2CCC(n3c([C@@H]4CCCNC4)nc4ccccc43)CC2)CCCCCCC1` yields cell viability of 105%

Query `Cc1ccc([S+](=O)([O-])Nc2nc3ccccc3nc2Nc2ccc3nsnc3c2)cc1` yields cell viability of 88.2%

Query `C[C@]12CC[C@@H]3c4ccc(O)cc4CC[C@H]3[C@@H]1C[C@@H](O)[C@@H]2O` yields cell viability of 119%

Query `CNC[C@H](O)c1cccc(O)c1` yields cell viability of 23.9%

Query `CCC(=O)N[C@H]1CC[C@H](C(=O)N(C)c2ccc(-c3nc4ccccc4o3)cc2)C1` yields cell viability of 94.2%

Query `O=C1Nc2ccc(I)cc2/C1=C/c1cc(Br)c(O)c(Br)c1` yields cell viability of 104%

Query `CN[C@@H](C)C(=O)N[C@H]1CN(C(=O)CC(C)C)CC[C@H]2CC[C@@H](C(=O)NC(c3ccccc3)c3ccccc3)N2C1=O` yields cell viability of 100%

Query `CC[C@@H]1/C=C(\C)C[C@H](C)C[C@H](OC)[C@H]2O[C@@](O)(C(=O)C(=O)N3CCCC[C@H]3C(=O)O[C@H](/C(C)=C/[C@@H]3CC[C@H](Cl)[C@H](OC)C3)[C@H](C)[C@@H](O)CC1=O)[C@H](C)C[C@@H]2OC` yields cell viability of 135%

Query COc1cc2nc(N3CCN(C(=O)C4CCCO4)CC3)nc(N)c2cc1OC (stereo unspecified) yields cell viability of 118%

Query COC(=O)C1C2CC3c4[nH]c5cc(OC)ccc5c4CCN3CC2CC(OC(=O)c2cc(OC)c(OC)c(OC)c2)C1OC (stereo unspecified) yields cell viability of 125%

Query `COc1ncnc(N[S+](=O)([O-])c2ccc(N)cc2)c1OC` yields cell viability of 77.8%

Query `CC(C)N(CC[C@H](c1ccccc1)c1cc(CO)ccc1O)C(C)C` yields cell viability of 141%

Query `C[C@]12CC[C@H]3[C@@H](CCC/4=C/C(=O)CC[C@]34C)[C@@H]1CC[C@@H]2O` yields cell viability of 128%

Query `NCCCCNCCCN` yields cell viability of 89.7%

Query `CCN(C(=O)C/1=C(O)/C2=C(C=CC=C2Cl)N(C)C1=O)C3=CC=CC=C3` yields cell viability of 93.5%

Query `COc1ccc(Nc2nccc(NCCO)n2)cc1` yields cell viability of 75.8%
